System: Bacillis subtilis (ATCC 6633)
Assay: In vitro anti-bacterial activity (MIC90), Gram-positive bacteria
Assay type: cell-based
Conditions: Gram-positive reference strain
measurement_type: MIC90 (µg/mL)
Provide only the numeric value, understood in µg/mL.

molecule="CC1COc2c(N3CCN(C)CC3)c(F)cc3c(=O)c(C(=O)O)cn1c23 (stereo not shown) [Ofloxacin, ofloxacin]" recorded_value=0.05
molecule="N[C@@H]1CCCCN(c2c(F)cc3c(=O)c(C(=O)O)cn(C4CC4)c3c2Cl)C1 [Compound Having Formula IV]" recorded_value=0.012

Lookup: What MIC90 appears in the records for this molecule with Bacillis subtilis (ATCC 6633)? CC1CCc2c(N3CCC(O)CC3)c(F)cc3c(=O)c(C(=O)O)cn1c23 (stereo not shown) [Nadifloxacin, nadifloxacin]
Found: 0.006

Lookup: Can you check C[C@@H]1CN(c2c(F)c(N)c3c(=O)c(C(=O)O)cn(C4CC4)c3c2F)C[C@H](C)N1 [Sparfloxacin, sparfloxacin] next?
Found: 0.024

====

Reported MIC90 for target or system Propionibacterium acnes (GAI 5419), by entry.
Provide only the numeric value, understood in µg/mL.

Here are 3 compounds together with their reported answers.
compound="CC1CCc2c(N3CCC(O)CC3)c(F)cc3c(=O)c(C(=O)O)cn1c23 (stereo not shown)" recorded_value=0.2
compound=C[C@@H]1CN(c2c(F)c(N)c3c(=O)c(C(=O)O)cn(C4CC4)c3c2F)C[C@H](C)N1 recorded_value=0.39
compound=N[C@@H]1CCCCN(c2c(F)cc3c(=O)c(C(=O)O)cn(C4CC4)c3c2Cl)C1 recorded_value=0.2

Moving on to the next compound.
Lookup: Please report the recorded MIC90 for CC1COc2c(N3CCN(C)CC3)c(F)cc3c(=O)c(C(=O)O)cn1c23 (stereo not shown) .
Found: 0.78

====

# MIC90 values compiled below
System: Streptococcus faecalis (ATCC 29212)
Test: In vitro anti-bacterial activity (MIC90), Gram-positive bacteria
Assay type: cell-based
Settings: Enterococcus faecalis, ATCC29212, Gram-positive reference strain

Here are 3 compounds together with their reported answers.
compound="CC1COc2c(N3CCN(C)CC3)c(F)cc3c(=O)c(C(=O)O)cn1c23 (stereo not shown)" recorded_value="1.56 mg/L"
compound=C[C@@H]1CN(c2c(F)c(N)c3c(=O)c(C(=O)O)cn(C4CC4)c3c2F)C[C@H](C)N1 recorded_value="0.39 mg/L"
compound="CC1CCc2c(N3CCC(O)CC3)c(F)cc3c(=O)c(C(=O)O)cn1c23 (stereo not shown)" recorded_value="0.78 mg/L"

Moving on to the next compound.
Lookup: Please report the recorded MIC90 for N[C@@H]1CCCCN(c2c(F)cc3c(=O)c(C(=O)O)cn(C4CC4)c3c2Cl)C1 .
Found: 0.2 mg/L
